Target: human GCGR (full-length glucagon receptor of 477 amino acids) (human, UniProt P47871 26-477)
Sequence (P47871 26-477 limits assumed): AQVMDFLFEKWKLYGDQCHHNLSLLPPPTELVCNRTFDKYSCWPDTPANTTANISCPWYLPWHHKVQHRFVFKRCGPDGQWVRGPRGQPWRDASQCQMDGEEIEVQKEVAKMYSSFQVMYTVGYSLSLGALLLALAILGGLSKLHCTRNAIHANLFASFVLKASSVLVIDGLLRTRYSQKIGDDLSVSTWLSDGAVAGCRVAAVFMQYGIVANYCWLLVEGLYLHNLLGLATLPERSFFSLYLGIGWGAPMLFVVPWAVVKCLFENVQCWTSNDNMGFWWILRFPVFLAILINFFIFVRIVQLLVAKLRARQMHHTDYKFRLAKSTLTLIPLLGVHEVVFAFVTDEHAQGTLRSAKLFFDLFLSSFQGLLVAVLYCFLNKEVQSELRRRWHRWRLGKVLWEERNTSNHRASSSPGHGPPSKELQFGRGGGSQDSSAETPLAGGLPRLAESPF
Test: cell-based or functional assay
parameter: IC50 (nM)
Give bare numbers, in nM.

[[record]]
binder = "hu1810-6 (antibody, human IgG4 S228P, kappa, F234A L235A, V domains shown) VH: QVQLVQSGAEVKKPGSSVKVSCKASGGTFSNYAISWVRQAPGQGLEWMGEIYPTSGNTYYNEKFKGRVTITADRSTSTMYMELSSLRSEDTAVYYCASGVITTVVSTDYFDYWGQGTLVTVSS VL: DIQMTQSPSSLSASVGDRVTITCRASLDISNYLNWYQQKPGKAVKLLIYYTSTLHSGVSSRFSGSGSGTDYTLTISSLQPEDFATYYCQQGNMVPYTFGGGTKVEIKR"
assay_result = 157

[[record]]
binder = "hu1803-3 (antibody, human IgG4 S228P, kappa, F234A L235A, V domains shown) VH: EVQLVQSGAEVKKPGASVKVSCKASGYTFTDYWIEWVRQAPGQGLEWIGEILPGSTYTNYNEKFKGRATFTADTSTSTAYMELSSLRSEDTAVYYCSRGLSTLMAVDYFDYWGQGTTVTVSS VL: DIQMTQSPSSLSASVGDRVTITCRASQDISNYLNWYQQKPGKAPKLLIYYSSTLHSGVPSRFSGSGSGTDFTLTISSLQPEDFATYYCQQTNIFPWTFGGGTKVEIKR"
assay_result = 110


Here are 3 binders. What values of IC50 were reported for them?
1. hu1810-11 (antibody, human IgG4 S228P, kappa, F234A L235A, V domains shown) VH: QVQLVQSGAEVKKPGSSVKVSCKASGGTFSNYAISWVRQAPGQGLEWIGEIYPTSGNTYYNEKFKGRATLTADRSTSTMYMELSSLRSEDTAVYYCASGVITTVVSTDYFDYWGQGTLVTVSS VL: DIQMTQSPSSLSASVGDRVTITCRASLDISNYLNWYQLKPGKAVKLLIYYTSTLHSGVSSRFSGSGSGTEYTLTISSLQPEDFATYYCQQGNMVPYTFGGGTKVEIKR
2. hu1810-1 (antibody, human IgG4 S228P, kappa, F234A L235A, V domains shown) VH: QVQLVQSGAEVKKPGSSVKVSCKASGGTFSNYAISWVRQAPGQGLEWMGEIYPTSGNTYYNEKFKGRVTITADKSTSTAYMELSSLRSEDTAVYYCARGVITTVVSTDYFDYWGQGTLVTVSS VL: DIQMTQSPSSLSASVGDRVTITCRASLDISNYLNWYQQKPGKAPKLLIYYTSTLHSGVPSRFSGSGSGTDFTLTISSLQPEDFATYYCQQGNMVPYTFGGGTKVEIKR
3. hu1803-2 (antibody, human IgG4 S228P, kappa, F234A L235A, V domains shown) VH: EVQLVQSGAEVKKPGASVKVSCKASGYTFTDYWIEWVRQAPGQGLEWMGEILPGSTYTNYNEKFKGRVTFTADTSTSTAYMELSSLRSEDTAVYYCARGLSTLMAVDYFDYWGQGTTVTVSS VL: DIQMTQSPSSLSASVGDRVTITCRASQDISNYLNWYQQKPGKAPKLLIYYSSTLHSGVPSRFSGSGSGTDFTLTISSLQPEDFATYYCQQTNIFPWTFGGGTKVEIKR

Ans:
1. 91.3
2. 189
3. 137
